- Tested on: human Factor 7 mRNA
- MEASUREMENT PROTOCOL: Inhibition of human Factor 7 mRNA by 2-10-2 MOE shortmers in HepB3 cells, electroporation, 1,000 nM
- Assay type: cell-based
- RUN CONDITIONS: electroporation, 1,000 nM oligonucleotide, approximately 24 hours, relative to untreated control cells
In the oligonucleotide strings, read from the 5' end, every base follows the letter of its sugar. An asterisk marks phosphorothioate; unmarked linkages are phosphodiester. Other units and linkages are bracketed, terminal groups are in braces. A string of capitals states the bases alone. e = 2'-O-(2-methoxyethyl) (MOE); [5mC] = 5-methylcytosine; d = 2'-deoxy (DNA)
ENDPOINT LABEL: % inhibition of human Factor 7 mRNA
Write the figure, then the unit, nothing else.

Please review the entries below; each comes with its answer.
>  <SUBSTANCE>
435651 (antisense eA*e[5mC]*dA*dG*dT*dT*d[5mC]*d[5mC]*dG*dG*d[5mC]*d[5mC]*e[5mC]*eT) [compound 435651]

>  <EXPERIMENTAL TARGET>
human Factor 7 mRNA

>  <% inhibition of human Factor 7 mRNA>
71%

$$$$
>  <SUBSTANCE>
435739 (antisense e[5mC]*eA*dT*d[5mC]*dT*d[5mC]*dA*dG*dA*dG*dG*dA*eT*eG) [compound 435739]

>  <EXPERIMENTAL TARGET>
human Factor 7 mRNA

>  <% inhibition of human Factor 7 mRNA>
5%

$$$$
>  <SUBSTANCE>
435634 (antisense eT*eG*dA*dA*dA*dT*d[5mC]*dT*d[5mC]*dT*dG*d[5mC]*eA*eG) [compound 435634]

>  <EXPERIMENTAL TARGET>
human Factor 7 mRNA

>  <% inhibition of human Factor 7 mRNA>
5%

$$$$
>  <SUBSTANCE>
435763 (antisense eA*eG*dG*dA*dG*dA*dA*dA*dG*dG*dT*d[5mC]*eA*eG) [compound 435763]

>  <EXPERIMENTAL TARGET>
human Factor 7 mRNA

>  <% inhibition of human Factor 7 mRNA>
2%

$$$$
>  <SUBSTANCE>
435732 (antisense eG*eA*dA*dA*dA*dG*dT*dG*dA*dG*dA*dG*e[5mC]*eT) [compound 435732]

>  <EXPERIMENTAL TARGET>
human Factor 7 mRNA

>  <% inhibition of human Factor 7 mRNA>
0%

$$$$
>  <SUBSTANCE>
435807 (antisense e[5mC]*eA*dG*dT*dA*d[5mC]*dT*dT*d[5mC]*d[5mC]*d[5mC]*dA*e[5mC]*eG) [compound 435807]

>  <EXPERIMENTAL TARGET>
human Factor 7 mRNA

>  <% inhibition of human Factor 7 mRNA>
35%

$$$$
>  <SUBSTANCE>
435731 (antisense eG*eT*dG*dA*dG*dA*dG*d[5mC]*dT*dA*dA*dA*e[5mC]*eA) [compound 435731]

>  <EXPERIMENTAL TARGET>
human Factor 7 mRNA

>  <% inhibition of human Factor 7 mRNA>
11%

$$$$
>  <SUBSTANCE>
435777 (antisense e[5mC]*eT*dG*dA*dG*dG*dA*dT*dG*d[5mC]*dA*dG*eG*e[5mC]) [compound 435777]

>  <EXPERIMENTAL TARGET>
human Factor 7 mRNA

>  <% inhibition of human Factor 7 mRNA>
53%

$$$$

Summary for this substance, 435714 (antisense eA*e[5mC]*dT*d[5mC]*dG*dA*dT*dG*dT*dA*d[5mC]*dT*eG*eG) [compound 435714] : % inhibition of human Factor 7 mRNA is 3%

Summary for this substance, 435780 (antisense eG*eG*dA*dG*dG*dG*dA*d[5mC]*dG*dA*d[5mC]*d[5mC]*eT*eT) [compound 435780] : % inhibition of human Factor 7 mRNA is 28%

Summary for this substance, 435794 (antisense eG*eA*dG*dG*dT*dA*d[5mC]*dA*d[5mC]*dA*dG*dG*e[5mC]*eT) [compound 435794] : % inhibition of human Factor 7 mRNA is 26%

Summary for this substance, 435652 (antisense e[5mC]*eT*dG*dG*dT*d[5mC]*dA*dT*d[5mC]*d[5mC]*dT*dT*eG*eT) [compound 435652] : % inhibition of human Factor 7 mRNA is 48%

Summary for this substance, 435490 (antisense e[5mC]*e[5mC]*dT*dG*dG*dT*dG*dT*dA*d[5mC]*dA*d[5mC]*e[5mC]*e[5mC]) [compound 435490] : % inhibition of human Factor 7 mRNA is 49%

Summary for this substance, 435820 (antisense e[5mC]*eA*dT*d[5mC]*d[5mC]*dT*dA*dG*dT*d[5mC]*dA*d[5mC]*eT*eG) [compound 435820] : % inhibition of human Factor 7 mRNA is 19%

Summary for this substance, 435642 (antisense eA*e[5mC]*dA*d[5mC]*dT*dG*dG*dT*d[5mC]*d[5mC]*d[5mC]*d[5mC]*eA*eT) [compound 435642] : % inhibition of human Factor 7 mRNA is 60%

Summary for this substance, 435809 (antisense e[5mC]*eT*dG*dA*d[5mC]*dA*dA*dT*dG*dT*dG*dA*eT*eG) [compound 435809] : % inhibition of human Factor 7 mRNA is 5%

====

- System: human Factor 7 mRNA
- MEASUREMENT PROTOCOL: Antisense inhibition of human Factor 7 mRNA in HepB3 cells, lipofectin, 50 nM, real-time RT-PCR
- Format: cell-based
- RUN CONDITIONS: HepB3 cells, lipofectin, 50 nM antisense oligonucleotide, approximately 24 hours, primer probe set RTS 2927, relative to untreated control
In the oligonucleotide strings, read from the 5' end, every base follows the letter of its sugar. An asterisk marks phosphorothioate; unmarked linkages are phosphodiester. Other units and linkages are bracketed, terminal groups are in braces. A string of capitals states the bases alone. e = 2'-O-(2-methoxyethyl) (MOE); [5mC] = 5-methylcytosine; d = 2'-deoxy (DNA)
Would you please tag the item 1 when its % Inhibition of human Factor 7 mRNA levels is 40% or above, and -1 when it is below?

These recorded examples may help you get a feel for the data.
>  <SUBSTANCE>
416493 (antisense eT*e[5mC]*eT*eT*eG*dG*dG*dT*dG*dT*dG*dG*dA*dT*dG*eT*eA*eA*eA*eT) [compound 416493]

>  <LABEL VALUE>
-1

$$$$
>  <SUBSTANCE>
416535 (antisense eG*e[5mC]*eA*eG*eG*dA*dT*dG*d[5mC]*dA*d[5mC]*dA*d[5mC]*d[5mC]*dA*eG*eG*eG*e[5mC]*eT) [compound 416535]

>  <LABEL VALUE>
1

$$$$
>  <SUBSTANCE>
416451 (antisense eG*e[5mC]*e[5mC]*eA*eT*dG*dG*dA*d[5mC]*dA*d[5mC]*dT*d[5mC]*d[5mC]*d[5mC]*e[5mC]*eT*eT*eT*eG) [compound 416451]

>  <LABEL VALUE>
1

$$$$

Prompt: Given the entry 416461 (antisense eG*eA*eA*eG*e[5mC]*dG*d[5mC]*dA*d[5mC]*dG*dA*dA*dG*dG*d[5mC]*e[5mC]*eA*eG*e[5mC]*eG) [compound 416461] , answer whether its % Inhibition of human Factor 7 mRNA levels meets or surpasses 40%.
Completion: 1

Prompt: Given the entry 416557 (antisense eT*e[5mC]*e[5mC]*e[5mC]*eA*dG*dG*d[5mC]*dA*dA*dA*dG*d[5mC]*dT*dG*e[5mC]*eT*e[5mC]*eA*eG) [compound 416557] , answer whether its % Inhibition of human Factor 7 mRNA levels meets or surpasses 40%.
Completion: 1

Prompt: Given the entry 416473 (antisense e[5mC]*e[5mC]*e[5mC]*eT*eG*d[5mC]*d[5mC]*d[5mC]*d[5mC]*dT*d[5mC]*dT*dG*dT*d[5mC]*e[5mC]*eA*eG*e[5mC]*eG) [compound 416473] , answer whether its % Inhibition of human Factor 7 mRNA levels meets or surpasses 40%.
Completion: 1

Prompt: Given the entry 416443 (antisense eG*eA*eG*eG*e[5mC]*dA*dG*dA*dA*dG*d[5mC]*dA*dG*dA*dT*eA*eT*eA*eG*eG) [compound 416443] , answer whether its % Inhibition of human Factor 7 mRNA levels meets or surpasses 40%.
Completion: -1

Prompt: Given the entry 416480 (antisense eA*eA*eG*eT*eG*dA*dG*dA*dG*d[5mC]*dT*dA*dA*dA*d[5mC]*eA*eA*e[5mC]*e[5mC]*eG) [compound 416480] , answer whether its % Inhibition of human Factor 7 mRNA levels meets or surpasses 40%.
Completion: -1

Prompt: Given the entry 416462 (antisense eG*eG*e[5mC]*eA*eG*dT*d[5mC]*d[5mC]*dT*dG*dG*dG*dT*d[5mC]*dA*eT*e[5mC]*eA*eG*e[5mC]) [compound 416462] , answer whether its % Inhibition of human Factor 7 mRNA levels meets or surpasses 40%.
Completion: 1

Prompt: Given the entry 416516 (antisense eG*eT*eG*eA*eG*dA*dA*dT*dA*d[5mC]*dA*dA*d[5mC]*dA*dG*eA*eT*eG*eA*eG) [compound 416516] , answer whether its % Inhibition of human Factor 7 mRNA levels meets or surpasses 40%.
Completion: -1

Where do these numbers come from? They come from patent US20120214862A1.
